# measured.on: BTK (Homo sapiens, UniProt Q06187)
# Sequence (Q06187 whole entry): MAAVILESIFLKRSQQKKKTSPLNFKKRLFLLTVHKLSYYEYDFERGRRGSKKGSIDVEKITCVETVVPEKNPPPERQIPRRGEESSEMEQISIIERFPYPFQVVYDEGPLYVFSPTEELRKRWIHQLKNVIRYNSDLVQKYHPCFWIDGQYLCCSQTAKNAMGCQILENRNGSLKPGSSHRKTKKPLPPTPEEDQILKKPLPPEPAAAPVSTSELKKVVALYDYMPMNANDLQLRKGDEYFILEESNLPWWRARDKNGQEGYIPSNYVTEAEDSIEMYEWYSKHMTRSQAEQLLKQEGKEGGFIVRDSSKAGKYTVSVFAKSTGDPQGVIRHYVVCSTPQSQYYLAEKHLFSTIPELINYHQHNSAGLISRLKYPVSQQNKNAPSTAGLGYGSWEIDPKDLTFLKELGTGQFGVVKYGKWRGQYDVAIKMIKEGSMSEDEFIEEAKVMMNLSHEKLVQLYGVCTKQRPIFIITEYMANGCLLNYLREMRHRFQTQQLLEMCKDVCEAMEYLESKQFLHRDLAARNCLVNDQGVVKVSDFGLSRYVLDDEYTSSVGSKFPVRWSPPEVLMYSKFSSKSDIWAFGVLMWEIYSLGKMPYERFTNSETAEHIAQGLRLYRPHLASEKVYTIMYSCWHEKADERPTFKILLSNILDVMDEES
# assay.notes: BTK cell degradation in TMD-8 cells, HTRF assay
# Format: cell-based
# Set-up: endogenous in cells; host or cells: TMD-8 cells
# condition.set: 6 h treatment, IC50 (DC50) of BTK degradation
The following molecules are shown together with reported DC50 values.
Report the figure in nM without appending any unit label.

COc1c(C)cccc1C(=O)NCc1ccc(-c2nn3c(c2C(N)=O)Nc2ccc(N4CCN(CC5CCN(c6ccc(N7CCC(=O)NC7=O)cc6)CC5)CC4)cc2CC3)cc1C; 9.8
Cc1cccc(NC(=O)c2ccc(-c3nn4c(c3C(N)=O)Nc3ccc(N5CCN(C6CC(c7ccc(N[C@H]8CCC(=O)NC8=O)cc7)C6)CC5)cc3CC4)c(F)c2C)n1 (some centres unmarked); 6.23

Any idea what DC50 was measured for Cc1c(C(=O)Nc2cn(C)cn2)ccc(-c2nn3c(c2C(N)=O)Nc2ccc(N4CCN(CCc5cc(F)c(C6CCC(=O)NC6=O)c(F)c5)CC4)cc2CC3)c1F (centres unmarked) ? 1.63

Entry Cc1cccc(NC(=O)c2ccc(-c3nn4c(c3C(N)=O)Nc3ccc(N5CCN(CC6CCN(c7ccc(N8CCC(=O)NC8=O)cc7)CC6)CC5)cc3CC4)cc2C)n1 has what DC50? 0.602

What value of DC50 has been recorded for this entry: Cc1cccc(N(COC(=O)C(C)(C)C)C(=O)c2ccc(-c3nn4c(c3C(N)=O)Nc3ccc(N5CCN(CC6CCN(c7ccc(N8CCC(=O)N(COC(=O)C(C)(C)C)C8=O)cc7)CC6)CC5)cc3CC4)c(F)c2C)n1 3.68

Endpoint output: DC50 of NC(=O)c1c(-c2ccc(Oc3ccccc3)cc2)nn2c1Nc1ccc(NCC3CCN(c4cc5c(cc4F)C(=O)N(C4CCC(=O)NC4=O)C5=O)CC3)cc1CC2 (centres unmarked) . Value? 9.71

Return reported DC50; argument: NC(=O)c1c(-c2ccc(Oc3ccccc3)cc2)nn2c1Nc1cc(OCCC3CCN(c4ccc(N5CCC(=O)NC5=O)cc4)CC3)ccc1CC2 24.9

Fill in the blank: the reported DC50 of Cc1c(C(=O)Nc2cn(C)cn2)ccc(-c2nn3c(c2C(N)=O)Nc2ccc(N4CCN(CCc5cccc6c5oc(=O)n6C5CCC(=O)NC5=O)CC4)cc2CC3)c1F (centres unmarked) is ____. 0.706

Which DC50 is listed for Cc1cccc(NC(=O)c2ncc(-c3nn4c(c3C(N)=O)Nc3ccc(N5CCN(C6CC(c7ccc(C8CCC(=O)NC8=O)cc7)C6)CC5)cc3CC4)cc2C)n1 (stereo in doubt) ? 10.6

Would you mind telling me what DC50 value was observed for NC(=O)c1c(-c2ccc(C(=O)Nc3cc(C(F)(F)F)ccn3)cc2F)nn2c1Nc1ccc(N3CCN(CC4CCN(c5ccc(N6CCC(=O)NC6=O)cc5)CC4)CC3)cc1CC2 ? 0.842

Requested field: DC50. Item: NC(=O)c1c(-c2ccc(Oc3ccccc3)cc2)nn2c1Nc1ccc(OCCC3CCN(c4ccc(N5CCC(=O)NC5=O)cc4)CC3)cc1CC2 9.26

###

# measured.on: BTK (Homo sapiens)
# assay.notes: BTK cell degradation in TMD-8 cells, HTRF assay
# Assay type: cell-based
# Parameters: endogenous in cells; host or cells: TMD-8 cells
# condition.set: 6 h treatment, IC50 (DC50) of BTK degradation
measure.name: DC50 (nM)
Quick note: give the figure in nM, leave out the unit.

Take a look at these entries with their results.
NC(=O)c1c(-c2ccc(Oc3ccccc3)cc2)nn2c1Nc1ccc(N3CCN(CC4CCN(c5ccc6c(c5)C(=O)N(C5CCC(=O)NC5=O)C6=O)CC4)CC3)cc1CC2 (stereo not drawn) [Example A6]; 3.42
Cc1c(C(=O)Nc2cc(C(F)(F)F)ccn2)ccc(-c2nn3c(c2C(N)=O)Nc2ccc(N4CCN(CC5CCN(c6ccc(N7CCC(=O)NC7=O)cc6)CC5)CC4)cc2CC3)c1F [Example B15]; 1.13

As a next step, examine the compound that follows.
Record request: DC50 value, item Cc1cccc(NC(=O)c2ccc(-c3nn4c(c3C(N)=O)Nc3ccc(N5CCN(CC6CCN(c7ccc(N8CCC(=O)NC8=O)cc7)CC6)CC5)cc3CC4)c(F)c2C)n1 [Example B28] 0.726

###

# Test system: HEK-293 cells
# assay.notes: HEK-293 cytotoxicity detection (CellTiter-Glo)
# Type: cell-based
# condition.set: Homo sapiens, 72 h, 72 h incubation, CellTiter-Glo luminescence, read-out: HEK293
Catalogue of compounds with associated pIC50
// pIC50 is dimensionless: -log10 of concentration (M)

Cc1cccc(N(CC(=O)OCc2ccccc2)C(=O)c2ccc(-c3nn4c(c3C(N)=O)Nc3ccc(N5CCN(CC6CCN(c7ccc(N8CCC(=O)N(CC(=O)OCc9ccccc9)C8=O)cc7)CC6)CC5)cc3CC4)c(F)c2C)n1 [Example B81]; 7.25

From here, focus on the item given below.
Entry Cc1cccc(NC(=O)c2ccc(-c3nn4c(c3C(N)=O)Nc3ccc(N5CCN(C6CC(c7ccc([C@H]8CCC(=O)NC8=O)cc7)C6)CC5)cc3CC4)c(F)c2C)n1 (some centres unmarked) [Example B67] : reported pIC50 = ? 7.01

###

# Test system: HEK-293 cells
# assay.notes: HEK-293 cytotoxicity detection (CellTiter-Glo)
# Type: cell-based
# condition.set: Homo sapiens, 72 h, 72 h incubation, CellTiter-Glo luminescence, read-out: HEK293
# Procedure: HEK-293 cells were treated with compounds diluted in 0.2% DMSO, dilution was done according to the following protocol: (1) making 500× stock solution in DMSO from 5 mM by 4-fold dilution, total 8 doses were included; (2) making 2× solution in cell culture medium by transferring 0.5 ul 500× stock solution into 125 ul medium; (3) adding 50 ul of 2× solution to cells for incubation of 72 h. 25 μl of the CellTiter-Glo®Reagent [(Promega)—Cat No. G7572] was added to each well in the 96-well plate. […]
measure.name: pIC50
Please report pIC50 as the negative decimal logarithm of the molar concentration, giving only the number.

NC(=O)c1c(-c2ccc(Oc3ccccc3)cc2)nn2c1Nc1cc(C3CCN(CC4CCN(c5ccc(N6CCC(=O)NC6=O)cc5)CC4)CC3)ccc1CC2 [Example A27]; 6.50
Cc1c(C(=O)Nc2cc(C(F)(F)F)ccn2)ccc(-c2nn3c(c2C(N)=O)Nc2ccc(N4CCN(CC5CCN(c6ccc(N7CCC(=O)NC7=O)cc6)CC5)CC4)cc2CC3)c1F [Example B15]; 6.73

# query: pIC50 of entry Cc1cccc(NC(=O)c2ncc(-c3nn4c(c3C(N)=O)Nc3ccc(N5CCN(CCc6cc(F)c(C7CCC(=O)NC7=O)c(F)c6)CC5)cc3CC4)cc2C)n1 (stereo not shown) [Example B33] 6.40

###

Below is a list of entries, each paired with its recorded DC50 value.
# measured.on: BTK (Homo sapiens, UniProt Q06187)
# assay.notes: BTK cell degradation in TMD-8 cells, HTRF assay
# Format: cell-based
# Parameters: endogenous in cells; host or cells: TMD-8 cells
# condition.set: 6 h treatment, IC50 (DC50) of BTK degradation
Just the number in nM, nothing appended.

Example molecules with recorded DC50:
NC(=O)c1c(-c2ccc(Oc3ccccc3)cc2)nn2c1Nc1cc(C3CCN(CCC4CCN(c5ccc(N6CCC(=O)NC6=O)cc5)CC4)CC3)ccc1CC2; 9.23
Cc1cccc(NC(=O)c2ccc(-c3nn4c(c3C(N)=O)Nc3ccc(N5CCN(CC6CCN(c7cc8c(cc7F)CN(C7CCC(=O)NC7=O)C8=O)CC6)CC5)cc3CC4)c(F)c2C)n1 (centres unmarked); 4.31
NC(=O)c1c(-c2ccc(C(=O)Nc3cc(C(F)(F)F)ccn3)cc2)nn2c1Nc1ccc(N3CCN(CC4CCN(c5ccc(N6CCC(=O)NC6=O)cc5)CC4)CC3)cc1CC2 [Example B12]; 5.82
COc1ccccc1C(=O)N[C@H](C)c1ccc(-c2nn3c(c2C(N)=O)Nc2ccc(N4CCN(CC5CCN(c6ccc(N7CCC(=O)NC7=O)cc6)CC5)CC4)cc2CC3)cc1; 2.76

Turning to the following molecule.
Query: DC50; subject: NC(=O)c1c(-c2ccc(C(=O)Nc3cc(C4CC4)ccn3)cc2)nn2c1Nc1ccc(N3CCN(CC4CCN(c5ccc(N6CCC(=O)NC6=O)cc5)CC4)CC3)cc1CC2 0.387

###

Below, each entry is listed with its recorded log10(DC50).
# measured.on: BTK (Homo sapiens, UniProt Q06187)
# assay.notes: BTK cell degradation in TMD-8 cells, HTRF assay
# Format: cell-based
# Set-up: endogenous in cells; host or cells: TMD-8 cells
# condition.set: 6 h treatment, IC50 (DC50) of BTK degradation
Record value = log10 of DC50 given in nM.

Please review the following examples before continuing.
NC(=O)c1c(-c2ccc(Oc3ccccc3)cc2)nn2c1Nc1ccc(N3CCN(CCC4CCN(c5ccc(N6CCC(=O)NC6=O)cc5)CC4)CC3)cc1CC2; 0.12
COc1cc(F)c(F)cc1C(=O)NCc1ccc(-c2nn3c(c2C(N)=O)Nc2ccc(N4CCN(CC5CCN(c6ccc(N7CCC(=O)NC7=O)cc6)CC5)CC4)cc2CC3)cc1C; 0.96
NC(=O)c1c(-c2ccc(Oc3ccccc3)cc2)nn2c1Nc1ccc(N3CCN(c4ccc5c(c4)C(=O)N(C4CCC(=O)NC4=O)C5=O)CC3)cc1CC2 (centres unmarked); 0.40
Cc1c(C(=O)Nc2ncnn2C)ccc(-c2nn3c(c2C(N)=O)Nc2ccc(N4CCN(CC5CCN(c6ccc(N7CCC(=O)NC7=O)cc6)CC5)CC4)cc2CC3)c1F; 0.58

Look up log10(DC50) for this molecule: COc1ccncc1C(=O)NCc1ccc(-c2nn3c(c2C(N)=O)Nc2ccc(N4CCN(CC5CCN(c6ccc(N7CCC(=O)NC7=O)cc6)CC5)CC4)cc2CC3)cc1C 0.04

What does the data say about its log10(DC50)? Entry: Cc1cccc(NC(=O)c2ccc(-c3nn4c(c3C(N)=O)Nc3ccc(N5CCN(CC6CCN(c7ccc(N8CCC(=O)NC8=O)cc7)CC6)CC5)cc3CC4)cc2)n1 -0.55

What does the data say about its log10(DC50)? Entry: NC(=O)c1c(-c2ccc(Oc3ccccc3)cc2)nn2c1Nc1ccc(C(=O)NC3CCN(CC4CCN(c5cc6c(cc5F)C(=O)N(C5CCC(=O)NC5=O)C6=O)CC4)CC3)cc1CC2 (centres unmarked) 0.24
